- target.entity: T1, full length human GLP-1R with N-terminal FLAG tag and C-terminal GFP tag, on CHO cells (human, UniProt P43220 24-463)
- T1 construct: whole, on cells; the cell line itself is tied to UniProt P43220; also called FLAG-GLP-1R-GFP; CHO-GLP-1R
- protocol.details: flow cytometry, GLP1R-expressing CHO cells
observable: Median RL1-H of Expressing Singlets
Numbers only.

GLP1R-221-076 (antibody, V domains shown, IgG) VH: QVQLVESGGGVVQPGRSLRLSCAASGFTFNNYPMHWVRQAPGKGLEWVAVISYDETNKYYADSVKGRFTISRDNSKNTLYLQMNSLRAEDTAVYYCAKHMSMQEGAVTGEGQAAKEFIAWLVKGIVRADLVGDAFDVWGQGTLVTVSS VL: QSVLTQPPSVSAAPGQKVTISCSGTSSNIGNNDVSWYQQLPGTAPKLLIYENNKRHSGIPDRFSGSKSGTSATLGITGLQTGDEADYYCLTWDHSLTAYVFGGGTKLTVL | 236000
GLP1R-221-034 (antibody, V domains shown, IgG) VH: QVQLVESGGGVVQPGRSLRLSCAASGFPFSNYGMHWVRQAPGKGLEWVAVISHDRSNKYYADSVKGRFTISRDNSKNTLYLQMNSLRAEDTAVYYCAKHMSMQEGAVTGEGQAVKEFIAWLVKGRVRADLVGDAFDVWGQGTLVTVSS VL: QSVLTQPPSVSAAPGQKVTISCSGSSSNIGNNPVSWYQQLPGTAPKLLIYENDNRPSGIPDRFSGSKSGTSATLGITGLQTGDEADYYCATWDRGLSTGVFGGGTKLTVL | 223000
GLP1R-221-065 (antibody, V domains shown, IgG) VH: QVQLVESGGGVVQPGRSLRLSCAASGFTFNNYAMHWVRQAPGKGLEWVAVISYDRSNEYYADSVKGRFTISRDNSKNTLYLQMNSLRAEDTAVYYCAKHMSMQEGAVTGDGQAAKEFIAWLVKGRVRADLVGDAFDVWGQGTLVTVSS VL: QSVLTQPPSVSAAPGQKVTISCSGTTSNIANNFVSWYQQLPGTAPKLLIYDHNKRPSGIPDRFSGSKSGTSATLGITGLQTGDEADYYCGTWDTSLSAGAFGGGTKLTVL | 273000
GLP1R-221-009 (antibody, V domains shown, IgG) VH: QVQLVESGGGVVQPGRSLRLSCAASGFIFSNYGMHWVRQAPGKGLEWVAVISDEGSNKYYADSVKGRFTISRDNSKNTLYLQMNSLRAEDTAVYYCAKHMSMQEGAVTGAGQAAKEFIAWLVKGRVRADLVGDAFDVWGQGTLVTVSS VL: QSVLTQPPSVSAAPGQKVTISCSGSSSNIGNQYVSWYQQLPGTAPKLLIYDDHKRPSGIPDRFSGSKSGTSATLGITGLQTGDEADYYCGTWDTSLSVGEFGGGTKLTVL | 221000

State the recorded Median RL1-H of Expressing Singlets for every item in the following list.
1. GLP1R-221-084 (antibody, V domains shown, IgG) VH: QVQLVESGGGVVQPGRSLRLSCAASGFAFSNYGMHWVRQAPGKGLEWVAVISSDENNKYYADSVKGRFTISRDNSKNTLYLQMNSLRAEDTAVYYCAKHMSMQEGAVTGEMQAAKEFIAWLVKGRVRADLVGDAFDVWGQGTLVTVSS VL: QSVLTQPPSVSAAPGQKVTISCSGSSSNIADNYVSWYQQLPGTAPKLLIYENNRRPSGIPDRFSGSKSGTSATLGITGLQTGDEADYYCGTWDVSLSVGMFGGGTKLTVL
2. GLP1R-221-066 (antibody, V domains shown, IgG) VH: QVQLVESGGGVVQPGRSLRLSCAASGFTFNNYAMHWVRQAPGKGLEWVAVISYDRSNEYYADSVKGRFTISRDNSKNTLYLQMNSLRAEDTAVYYCAKHMSMQEGAVTGEGQAIKEFIAWLVKGRVRADLVGDAFDVWGQGTLVTVSS VL: QSVLTQPPSVSAAPGQKVTISCSGSSSNIGNNYLSWYQQLPGTAPKLLIYENNKRPSGIPDRFSGSKSGTSATLGITGLQTGDEADYYCGIWDRSLSAWVFGGGTKLTVL
3. GLP1R-221-092 (antibody, V domains shown, IgG) VH: QVQLVESGGGVVQPGRSLRLSCAASGFIFNNYGMHWVRQAPGKGLEWVAFISYGGSNKYYADSVKGRFTISRDNSKNTLYLQMNSLRAEDTAVYYCAKHMSMQEGAVTGEGQAVKEFIAWLVKGRVRADLVGDAFDVWGQGTLVTVSS VL: QSVLTQPPSVSAAPGQKVTISCSGTTSNIANNFVSWYQQLPGTAPKLLIYDNNKRPPGIPDRFSGSKSGTSATLGITGLQTGDEADYYCGTWDTSLSVGMFGGGTKLTVL
4. GLP1R-221-075 (antibody, V domains shown, IgG) VH: QVQLVESGGGVVQPGRSLRLSCAASGFTFSNYPMHWVRQAPGKGLEWVAVISYDETNKYYADSVKGRFTISRDNSKNTLYLQMNSLRAEDTAVYYCAKHMSMQEGAVTGEGQAAKEFIAWLVKGIVRADLVGDAFDVWGQGTLVTVSS VL: QSVLTQPPSVSAAPGQKVTISCSGSGSNIGNNDVSWYQQLPGTAPKLLIYDNDKRPAGIPDRFSGSKSGTSATLGITGLQTGDEADYYCGTWDTSLSNYVFGGGTKLTVL

(A)
1: 221000; 2: 223000; 3: 232000; 4: 242000

State the recorded Median RL1-H of Expressing Singlets for every item in the following list.
1. GLP1R-221-017 (antibody, V domains shown, IgG) VH: QVQLVESGGGVVQPGRSLRLSCAASGFTFSDYGVHWVRQAPGKGLEWVAFISYDESNKYYADSVKGRFTISRDNSKNTLYLQMNSLRAEDTAVYYCAKHMSMQEGAVTGEYQAAKEFIAWLVKGRVRADLVGDAFDVWGQGTLVTVSS VL: QSVLTQPPSVSAAPGQKVTISCSGSSSNIGNTYVSWYQQLPGTAPKLLIYDDYKRPSGIPDRFSGSKSGTSATLGITGLQTGDEADYYCATWDATLNTGVFGGGTKLTVL
2. GLP1R-221-033 (antibody, V domains shown, IgG) VH: QVQLVESGGGVVQPGRSLRLSCAASGFSFSNYAMHWVRQAPGKGLEWVAVISHDRSNKYYADSVKGRFTISRDNSKNTLYLQMNSLRAEDTAVYYCAKHMSMQEGAVTGEGQAAKDFIAWLVKGRVRADLVGDAFDVWGQGTLVTVSS VL: QSVLTQPPSVSAAPGQKVTISCSGSSSNIGNEYVSWYQQLPGTAPKLLIYDNNKRVSGIPDRFSGSKSGTSATLGITGLQTGDEADYYCATWDTSLNVGVFGGGTKLTVL

(A)
241000
240000
